target: prostanoid EP3 receptors (Homo sapiens, UniProt P43115)
Sequence (P43115 1-390): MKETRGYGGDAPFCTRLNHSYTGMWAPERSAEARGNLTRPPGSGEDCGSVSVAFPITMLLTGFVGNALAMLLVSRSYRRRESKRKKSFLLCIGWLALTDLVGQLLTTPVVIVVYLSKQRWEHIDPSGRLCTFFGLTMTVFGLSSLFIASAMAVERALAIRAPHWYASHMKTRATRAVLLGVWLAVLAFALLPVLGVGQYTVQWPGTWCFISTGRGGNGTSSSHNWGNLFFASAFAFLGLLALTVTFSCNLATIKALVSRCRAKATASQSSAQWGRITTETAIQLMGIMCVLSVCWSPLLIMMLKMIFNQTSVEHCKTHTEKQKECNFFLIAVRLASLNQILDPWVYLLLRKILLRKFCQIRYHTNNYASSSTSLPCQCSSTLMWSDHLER
pIC50: −log10 of the molar value.
quantity kind: pIC50

Some solved cases for reference:
compound	pIC50
CC12CCCC(/C=C/C(=O)O)=C1N(Cc1ccc(Cl)cc1Cl)C(=O)C2 (stereo not drawn) [Compound A32]	> 6.00
CC12CCCC(CCC(=O)O)=C1N(Cc1ccc(F)c(F)c1)C(=O)C2 (stereo not drawn) [Compound A50]	5.00 to 6.00
O=C(O)CCc1cccc2ccn(Cc3ccc4ccccc4c3)c12 [Compound A58]	> 6.00
O=C(O)COc1cccc2ncn(Cc3ccc4ccccc4c3)c12 [Compound A22]	< 5.00
Cn1cc(/C=C/C(=O)O)c2c(Oc3ccc(Cl)cc3)cccc21 [Compound A41]	5.00 to 6.00

*Q* Which pIC50 is listed for O=C(O)/C=C/c1cnn2ccn(Cc3ccc4ccccc4c3)c12 [Compound A02] ?
*A* 5.00 to 6.00

*Q* Which pIC50 is listed for Cn1cc(/C=C/C(=O)O)c2c(Oc3ccc4ccccc4c3)cccc21 [Compound A44] ?
*A* > 6.00

*Q* Which pIC50 is listed for CC12CCCC(/C=C/C(=O)O)=C1N(Cc1ccc3ccccc3c1)C(=O)C2 (stereo not drawn) [Compound A24] ?
*A* 5.00 to 6.00

*Q* Which pIC50 is listed for Cn1cc(/C=C/C(=O)O)c2c(Oc3ccc(F)c(F)c3)cccc21 [Compound A42] ?
*A* 5.00 to 6.00

*Q* Which pIC50 is listed for Cn1cc(/C=C/C(=O)O)c2c(Oc3ccc(Cl)c(Cl)c3)cccc21 [Compound A39] ?
*A* 5.00 to 6.00

*Q* Which pIC50 is listed for Cc1cn(Cc2cn3ccccc3n2)c2c(/C=C/C(=O)O)cc(F)cc12 [Compound A57] ?
*A* 5.00 to 6.00

*Q* Which pIC50 is listed for O=C(O)/C=C/c1cccc2c1N(Cc1ccc3ccccc3c1)C(=O)C2=O [Compound A56] ?
*A* > 6.00

*Q* Which pIC50 is listed for Cn1nc(NC(=O)c2ccc3ccccc3c2)c2c(/C=C/C(=O)O)cccc21 [Compound A26] ?
*A* 5.00 to 6.00

*Q* Which pIC50 is listed for O=C(O)COc1cccc2oc(=O)n(Cc3ccc4ccccc4c3)c12 [Compound A04] ?
*A* 5.00 to 6.00

*Q* Which pIC50 is listed for O=C(O)COc1cccc2oc(=O)n(Cc3ccc(Cl)c(Cl)c3)c12 [Compound A06] ?
*A* 5.00 to 6.00

----------
Observed IC50, system prostanoid EP3 receptors (Homo sapiens, UniProt P43115).

Some solved cases for reference:
molecule	target	quantity kind	data value
O=C(O)COc1cccc2oc(=O)n(Cc3ccc4c(c3)OCO4)c12 [Compound A05]	prostanoid EP3 receptors (Homo sapiens, UniProt P43115)	IC50	1 to 10 µM
Cc1ccc(C)c(Cn2c(=O)oc3cccc(OCC(=O)O)c32)c1 [Compound A08]	prostanoid EP3 receptors (Homo sapiens, UniProt P43115)	IC50	1 to 10 µM
CC12CCCC(/C=C/C(=O)O)=C1N(Cc1ccc(Cl)c(Cl)c1)C(=O)C2 (stereo not shown) [Compound A34]	prostanoid EP3 receptors (Homo sapiens, UniProt P43115)	IC50	< 1 µM
O=C(O)/C=C/c1cccc2c1N(Cc1ccc(Cl)cc1Cl)C(=O)C2(F)F [Compound A20]	prostanoid EP3 receptors (Homo sapiens, UniProt P43115)	IC50	1 to 10 µM

*Q* Form field - read-out: IC50; system: prostanoid EP3 receptors (Homo sapiens, UniProt P43115); submitted item: CC12CCCC(/C=C/C(=O)O)=C1N(Cc1cccc(F)c1)C(=O)C2 (stereo not shown) [Compound A27]
*A* < 1 µM

*Q* Form field - read-out: IC50; system: prostanoid EP3 receptors (Homo sapiens, UniProt P43115); submitted item: CN1C(=O)C(C(=O)Nc2ccc(Cl)cc2Cl)c2c(/C=C/C(=O)O)cccc21 (stereo not shown) [Compound A33]
*A* 1 to 10 µM

*Q* Form field - read-out: IC50; system: prostanoid EP3 receptors (Homo sapiens, UniProt P43115); submitted item: O=Cc1cn(Cc2ccc(Cl)cc2Cl)c2c(/C=C/C(=O)O)cccc12 [Compound A11]
*A* < 1 µM

*Q* Form field - read-out: IC50; system: prostanoid EP3 receptors (Homo sapiens, UniProt P43115); submitted item: O=C(O)COc1cccc2oc(=O)n(Cc3ccc(Cl)cc3Cl)c12 [Compound A07]
*A* 1 to 10 µM

*Q* Form field - read-out: IC50; system: prostanoid EP3 receptors (Homo sapiens, UniProt P43115); submitted item: O=C(O)C=Cc1cccc2c1N(Cc1ccc3ccccc3c1)C(=O)C2(O)C(F)(F)F (stereo not shown) [Compound A15]
*A* 1 to 10 µM

*Q* Form field - read-out: IC50; system: prostanoid EP3 receptors (Homo sapiens, UniProt P43115); submitted item: COc1cccc(CN2C(=O)CC3(C)CCCC(/C=C/C(=O)O)=C23)c1 (stereo not shown) [Compound A29]
*A* < 1 µM

----------
Observed IC50, system prostanoid EP3 receptors (Homo sapiens, UniProt P43115).

molecule	IC50
O=C(O)CCc1csc2ncc(C=Cc3ccc4ccccc4c3)n12 (mixture of isomers) [Compound A23]	1 to 10 µM
CC1(C)C(=O)N(Cc2ccc(Cl)cc2Cl)c2c(/C=C/C(=O)O)cccc21 [Compound A19]	1 to 10 µM

Here is another molecule to look at.
*Q* Form field - read-out: IC50; system: prostanoid EP3 receptors (Homo sapiens, UniProt P43115); submitted item: Cn1cc(/C=C/C(=O)O)c2c(Oc3ccc(F)cc3Cl)cccc21 [Compound A46]
*A* 1 to 10 µM
